Molecular target: ligand-binding domain of RORγ (RORγ-LBD) (Homo sapiens)
Construct: purchased Invitrogen
Sequence (P51449 269-508 limits assumed): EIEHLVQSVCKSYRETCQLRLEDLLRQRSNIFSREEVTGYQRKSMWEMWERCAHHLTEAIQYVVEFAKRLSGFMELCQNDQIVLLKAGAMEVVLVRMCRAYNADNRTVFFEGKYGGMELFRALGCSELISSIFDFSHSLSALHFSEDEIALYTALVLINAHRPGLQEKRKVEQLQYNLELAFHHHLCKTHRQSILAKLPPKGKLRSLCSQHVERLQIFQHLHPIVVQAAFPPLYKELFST
Assay: Inhibitory effect on RORγ-coactivator binding (LanthaScreen TR-FRET RORγ Coactivator Assay)
Conditions: at 33 μmol/L of the test compound; read-out: RORγ-coactivator binding inhibition rate (%)
Description: The inhibitory effect of the cyclic amine derivative (I) or a pharmacologically acceptable salt thereof on the binding between a ligand-binding domain of RORγ (hereinafter referred to as RORγ-LBD) and a coactivator was evaluated using Invitrogen's LanthaScreen™TR-FRET Retinoid-Related Orphan Receptor (ROR) gamma Coactivator Assay kit utilizing time-resolved fluorescence energy transfer (TR-FRET). […]
Please respond with reported inhibition at 33 µM for every item in the list.
Answers are plain numbers, in %.

The examples below pair each entry with its known result.
| COMPOUND | MEASUREMENT UNIT | inhibition at 33 µM |
| --- | --- | --- |
| O=C(Nc1ccc(-c2ccccc2OC(F)(F)F)c(Cl)c1)[C@H]1CCCCN1C(=O)CCn1cnnn1 | % | 100 |
| O=C(Nc1ccc(-c2ccccc2OC(F)(F)F)c(Cl)c1)C1CCCCN1C(=O)COC(F)(F)F (stereo not shown) | % | 95.2 |
| O=CN1CCCCC1C(=O)Nc1ccc(-c2ccccc2OC(F)(F)F)c(Cl)c1 (stereo not shown) | % | 99.3 |

Hello, I would appreciate it if you could give inhibition at 33 µM for each entry below.
1. CS(=O)(=O)CCC(=O)N1CCCCC1C(=O)Nc1ccc(-c2ccccc2OC(F)(F)F)c(Cl)c1 (stereo not shown)
2. O=C(Nc1ccc(-c2ccccc2OC(F)(F)F)c(Cl)c1)[C@H]1CCCCN1C(=O)Cn1ccnc1
3. O=C(Nc1ccc(-c2ccccc2OC(F)(F)F)c(Cl)c1)[C@H]1CCCCN1C(=O)Cn1nccn1
4. COC(=O)CCCC(=O)N1CCCC[C@@H]1C(=O)Nc1ccc(-c2ccccc2OC(F)(F)F)c(Cl)c1
5. CC(C)Oc1ccccc1-c1ccc(NC(=O)C2CCCCN2C(=O)CN(C)S(C)(=O)=O)cc1Cl (stereo not shown)

[98.7, 91.7, 103, 95.9, 99.3]
